method.description: MRT in ICR mouse at 1 mg/kg, iv by LC-MS/MS analysis
Assay type: ADME, organism-based
assay.conditions: in vivo
experimental.readout: MRT (h)
Report as a plain number; the unit h is understood.

IN: Supply measured MRT of `COc1cc2ncnc(Nc3ccc(F)c(Cl)c3)c2cc1OCCn1cc(CCCO[Si](c2ccccc2)(c2ccccc2)C(C)(C)C)nn1` in your reply.
OUT: 2.72

----------
method.description: Half life in ICR mouse at 1 mg/kg, iv by LC-MS/MS analysis
Assay type: ADME, organism-based
assay.conditions: in vivo
experimental.readout: half-life (h)
Report as a plain number; the unit h is understood.

IN: Supply measured half-life of `COc1cc2ncnc(Nc3ccc(F)c(Cl)c3)c2cc1OCCn1cc(CCCO[Si](c2ccccc2)(c2ccccc2)C(C)(C)C)nn1` in your reply.
OUT: 2.18

----------
Assign IC50 to each entry below.
Tested on: HCC827
method.description: Antiproliferative activity against human HCC827 cells assessed as decrease in cell survival measured after 72 hrs by CCK-8 assay
Format: functional, cell-based
assay.conditions: HCC827, 72 h

IN: Under HCC827: report IC50 of `COc1cc2ncnc(Nc3ccc(F)c(Cl)c3)c2cc1OCCCN1CCN(CCCO[Si](c2ccccc2)(c2ccccc2)C(C)(C)C)CC1` .
OUT: > 10000 nM

IN: Under HCC827: report IC50 of `COc1cc2ncnc(Nc3ccc(F)c(Cl)c3)c2cc1OCCCCCCCCO[Si](c1ccccc1)(c1ccccc1)C(C)(C)C` .
OUT: > 10000 nM

IN: Under HCC827: report IC50 of `COc1cc2ncnc(Nc3ccc(F)c(Cl)c3)c2cc1OCCCN1CCN(CCn2cc(CCCO[Si](C)(C)C3CCCCC3)nn2)CC1` .
OUT: > 10000 nM

IN: Under HCC827: report IC50 of `COc1cc2ncnc(Nc3ccc(F)c(Cl)c3)c2cc1OCCn1cc(CCCO[Si](c2ccccc2)(c2ccccc2)C(C)(C)C)nn1` .
OUT: 70 nM

IN: Under HCC827: report IC50 of `COc1cc2ncnc(Nc3ccc(F)c(Cl)c3)c2cc1OCCCN1CCN(CCn2cc(CCO[Si](c3ccccc3)(c3ccccc3)C(C)(C)C)nn2)CC1` .
OUT: 990 nM

IN: Under HCC827: report IC50 of `CC[Si](CC)(CC)OCCCc1cn(CCOc2cc3c(Nc4ccc(F)c(Cl)c4)ncnc3cc2OC)nn1` .
OUT: 330 nM

IN: Under HCC827: report IC50 of `COc1cc2ncnc(Nc3ccc(F)c(Cl)c3)c2cc1OCCn1cc(CCCO[Si](C(C)C)(C(C)C)C(C)C)nn1` .
OUT: 7460 nM

----------
method.description: Tmax in ICR mouse at 1 mg/kg, iv by LC-MS/MS analysis
Assay type: ADME, organism-based
assay.conditions: in vivo
experimental.readout: Tmax (min)
Report as a plain number; the unit min is understood.

IN: Supply measured Tmax of `COc1cc2ncnc(Nc3ccc(F)c(Cl)c3)c2cc1OCCn1cc(CCCO[Si](c2ccccc2)(c2ccccc2)C(C)(C)C)nn1` in your reply.
OUT: 4.8

----------
method.description: Half life in ICR mouse at 10 mg/kg, po by LC-MS/MS analysis
Type: ADME, organism-based
assay.conditions: in vivo
experimental.readout: half-life (h)
Report as a plain number; the unit h is understood.

IN: Supply measured half-life of `COc1cc2ncnc(Nc3ccc(F)c(Cl)c3)c2cc1OCCn1cc(CCCO[Si](c2ccccc2)(c2ccccc2)C(C)(C)C)nn1` in your reply.
OUT: 1.29
